Molecular target: Human TREM2 (Homo sapiens, UniProt Q9NZC2)
Construct: expressed in transfected cells
Sequence (Q9NZC2 19-230): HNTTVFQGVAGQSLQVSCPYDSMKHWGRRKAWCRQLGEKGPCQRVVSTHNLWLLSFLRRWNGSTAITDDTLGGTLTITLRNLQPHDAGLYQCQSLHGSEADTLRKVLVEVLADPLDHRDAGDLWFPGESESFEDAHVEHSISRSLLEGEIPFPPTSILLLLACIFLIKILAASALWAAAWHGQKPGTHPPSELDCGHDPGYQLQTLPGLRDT
Sequence (O43914 22-113 partner): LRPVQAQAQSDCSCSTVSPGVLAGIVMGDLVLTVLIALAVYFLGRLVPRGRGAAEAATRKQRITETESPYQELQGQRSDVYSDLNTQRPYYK
Test: Human TREM2 activity: cellular phosphorylation of Syk (AlphaLISA SureFire Ultra p-SYK) in HEK293/DAP12+TREM2 stable cell line
Type: cell-based
Conditions: HEK293; maximal response relative to reference agonist example 1B (remaining examples); read-out: Emax
Attribute Measured: Emax

Previously resolved entries follow.
Input: // Emax lookup, key: Cc1nc2c(-c3ccc(Cl)cc3F)nc(N3CCO[C@@H](c4cnn(C(F)(F)F)c4)C3)nc2c(=O)n1C (single isomer, unassigned) [Example 107B]
Output: 75 to 110%

Input: What does the data say about its Emax? Entry: CNC(=O)C1CN(c2nc(-c3ccc(Cl)cc3F)c3nc(C)n(C)c(=O)c3n2)CCO1 (stereo not drawn)
Output: < 75%

The following molecules each have a reported value; give each one's Emax.
1. Cc1nc2c(-c3ccc(C(F)(F)F)cc3F)nc(N3CCO[C@H](c4cnn(C)c4)C3)cc2c(=O)n1C (single isomer, unassigned) [Example 126B]
2. Cc1nc2c(-c3ccc(C(F)(F)F)cc3F)nc(N3C[C@@H](c4cnn(C)c4)OC(C)(C)C3)cc2c(=O)n1C (single isomer, unassigned) [Example 134A]
3. Cc1nc2c(-c3ccc(F)cc3F)nc([C@@H]3CCO[C@H](c4cnn(C5CC5)c4)C3)nc2c(=O)n1C (single isomer, unassigned) [Example 120A]
4. Cc1nc2c(-c3cc(F)c(F)cc3F)nc(N3C[C@@H](c4cnn(C)c4)OC4(CCC4)C3)cc2c(=O)n1C (single isomer, unassigned) [Example 152A]

Output:
1: < 75%; 2: 75 to 110%; 3: < 75%; 4: 75 to 110%

* * *

Give measured EC50 for each item. Keep answers brief.
Molecular target: Human TREM2 (Homo sapiens)
Construct: expressed in transfected cells
Test: Human TREM2 activity: cellular phosphorylation of Syk (AlphaLISA SureFire Ultra p-SYK) in HEK293/DAP12+TREM2 stable cell line
Assay type: cell-based
Details: phospho-Syk AlphaLISA signal, HEK293/DAP12+TREM2 cells; concentration giving 50% of maximal response; read-out: EC50

Input: Write down the reported EC50 of Cc1nc2c(-c3ccc(Cl)cc3F)nc(N3CC[C@H](Oc4cnn(C)c4)C3)nc2c(=O)n1C [Example 74] , test system: Human TREM2 (Homo sapiens).
Output: > 1 µM

Input: State its EC50 on Human TREM2 (Homo sapiens): Cc1nc2c(-c3ccc(Cl)cc3F)nc([C@H]3CCO[C@@H](c4cnn(C5CC5)c4)C3)cc2c(=O)n1C (single isomer, unassigned) [Example 140B]
Output: 0.01 to 0.1 µM

Input: Give recorded EC50 with Human TREM2 (Homo sapiens) for the following compound: Cc1nc2c(-c3ccc(Cl)cc3F)cc(N3CCOC(c4cnn(C)c4)C3)cc2c(=O)n1C (stereo not drawn) [Example 106]
Output: 0.1 to 1 µM

Input: Give Human TREM2 (Homo sapiens) EC50 for Cc1nc2c(nc(N3CCOC(c4cnn(C)c4)C3)nc2[C@H]2CC[C@@H](C)CC2)c(=O)n1C (stereo partly drawn) [Example 12a]
Output: > 1 µM

Input: Record Cc1cc([C@H]2C[C@@H](c3nc(-c4ccc(Cl)cc4F)c4nc(C)n(C)c(=O)c4n3)CCO2)ccn1 (single isomer, unassigned) [Example 94] : what is its EC50 with Human TREM2 (Homo sapiens)?
Output: 0.001 to 0.01 µM

Others:
Input: Look up EC50 with Human TREM2 (Homo sapiens) for this compound: Cc1nc2c(-c3ccc(Cl)cc3F)cc(N3C[C@@H](c4cnn(C)c4)OC(C)(C)C3)cc2c(=O)n1C (single isomer, unassigned) [Example 117A]
Output: 0.01 to 0.1 µM

* * *

Molecular target: Human TREM2 (Homo sapiens, UniProt Q9NZC2)
Construct: expressed in transfected cells
Assay: Human TREM2 activity: cellular phosphorylation of Syk (AlphaLISA SureFire Ultra p-SYK) in HEK293/DAP12+TREM2 stable cell line
Format: cell-based
Details: HEK293; maximal response relative to reference agonist example 1B (remaining examples); read-out: Emax
Please go through the items and note down their Emax.

Input: Consider the molecule Cc1nc2c(-c3ccc(C(F)(F)F)cc3F)cc([C@@H]3CCO[C@H](c4cnn(C5CC5)c4)C3)cc2c(=O)n1C (single isomer, unassigned) [Example 118A] and give its measured Emax.
Output: 75 to 110%

Input: What measured Emax goes with Cc1nc2c(-c3ccc(Cl)cc3F)nc(N3CC(OCc4cnn(C)c4)C3)nc2c(=O)n1C [Example 18] ?
Output: < 75%

Field: next molecule
Input: # input molecule: Cc1nc2c(-c3cc(F)c(F)cc3F)nc([C@@H]3CCO[C@H](c4cnn(C5CC5)c4)C3)cc2c(=O)n1C (single isomer, unassigned) [Example 139A] ; wanted: its Emax
Output: 75 to 110%

* * *

Target: Human TREM2 (Homo sapiens, UniProt Q9NZC2)
Construct: expressed in transfected cells
Experiment: Human TREM2 activity: cellular phosphorylation of Syk (AlphaLISA SureFire Ultra p-SYK) in HEK293/DAP12+TREM2 stable cell line
Type: cell-based
Details: HEK293; maximal response relative to reference agonist example 1B (remaining examples); read-out: Emax
Can you tell me Emax for the items I'm about to list?

Input: Form: Entry = Cc1nc2c(-c3cc(F)c(F)cc3F)nc(N3CCO[C@H](c4cnn(C)c4)C3)cc2c(=O)n1C (single isomer, unassigned) [Example 130B] | System = Human TREM2 (Homo sapiens, UniProt Q9NZC2) | Emax = ____
Output: < 75%

Input: Form entry - test system: Human TREM2 (Homo sapiens, UniProt Q9NZC2); read-out: Emax; compound: Cc1nc2c(-c3ccc(Cl)cc3F)nc(N3CCCC(N4CC(F)(F)C4)C3)nc2c(=O)n1C (stereo not drawn)
Output: < 75%

Input: Form: Entry = Cc1cc([C@H]2C[C@@H](c3cc4c(=O)n(C)c(C)nc4c(-c4ccc(C(F)(F)F)cc4F)n3)CCO2)ccn1 (single isomer, unassigned) [Example 168B] | System = Human TREM2 (Homo sapiens, UniProt Q9NZC2) | Emax = ____
Output: 75 to 110%

Input: Return Emax measured with Human TREM2 (Homo sapiens, UniProt Q9NZC2) given this compound: Cc1nc(C2CN(c3nc(-c4ccc(Cl)cc4F)c4nc(C)n(C)c(=O)c4n3)CCO2)no1 (stereo not drawn)
Output: < 75%

Input: Checklist item: Emax tested on Human TREM2 (Homo sapiens, UniProt Q9NZC2), entry Cc1nc2c(-c3ccc(F)cc3C#N)nc(N3C[C@@H](c4cnn(C5CC5)c4)O[C@@H](C)C3)cc2c(=O)n1C (single isomer, unassigned) [Example 201A] , value?
Output: < 75%

Input: Query the reported Emax for Human TREM2 (Homo sapiens, UniProt Q9NZC2); item: Cc1cc([C@@H]2CN(c3nc(-c4ccc(F)cc4F)c4nc(C)n(C)c(=O)c4n3)CC(F)(F)O2)ccn1 (single isomer, unassigned) [Example 169A]
Output: 75 to 110%

Input: What measured Emax is associated with Cc1nc2c(-c3ccc(C(F)(F)F)nc3)nc(N3C[C@@H](c4cnn(C5CC5)c4)O[C@@H](C)C3)cc2c(=O)n1C (single isomer, unassigned) [Example 184A] on Human TREM2 (Homo sapiens, UniProt Q9NZC2)?
Output: 75 to 110%

Input: Can you look up Emax on Human TREM2 (Homo sapiens, UniProt Q9NZC2) for "Cc1nc2c(-c3ccc(Cl)cc3F)nc(N3CCC[C@@H](Oc4cnn(C)c4)C3)nc2c(=O)n1C" ?
Output: 75 to 110%

Look up Emax for the entries below, preserving their order.
1. Cc1nc2c(-c3ccc(C(F)(F)F)nc3)nc(N3CCO[C@H](c4cnn(C)c4)C3)nc2c(=O)n1C (single isomer, unassigned) [Example 28A]
2. Cc1ncc([C@H]2C[C@@H](c3nc(-c4ccc(Cl)cc4F)c4nc(C)n(C)c(=O)c4n3)CCO2)cn1 (racemic)
3. Cc1nc2c(-c3ccc(C(F)F)nc3)nc(N3C[C@@H](C)O[C@@H](c4cnn(C5CC5)c4)C3)cc2c(=O)n1C (single isomer, unassigned) [Example 194B]
4. Cc1nc2c(-c3ccc(Cl)cc3F)nc(N3CCC(F)(F)C(c4cnn(C)c4)C3)nc2c(=O)n1C (stereo not drawn)

Output:
["75 to 110%", "75 to 110%", "< 75%", "75 to 110%"]

* * *

Biological target: Human TREM2 (Homo sapiens, UniProt Q9NZC2)
Construct: expressed in transfected cells
Assay: Human TREM2 activity: cellular phosphorylation of Syk (AlphaLISA SureFire Ultra p-SYK) in HEK293/DAP12+TREM2 stable cell line
Assay type: cell-based
Conditions: HEK293; maximal response relative to reference agonist example 1B (remaining examples); read-out: Emax
Attribute Measured: Emax

# annotated cases, reported Emax shown
Input: State the recorded Emax for this entry: Cc1nc2c(-c3cc(F)c(F)cc3F)nc(N3C[C@H](c4cnn(C)c4)OC(C)(C)C3)nc2c(=O)n1C (single isomer, unassigned) [Example 101B]
Output: < 75%

Input: Need Emax, item Cc1nc2c(-c3ccc(Cl)cc3F)nc(C3CCOC(c4cnn(C)c4)C3)nc2c(=O)n1C (stereo not drawn) [Example 17]
Output: 75 to 110%

Input: Please give the measured Emax for this compound: Cc1nc2c(-c3ccc(Cl)cc3F)nc(N3C[C@@H](c4cnn(C)c4)OC4(CC4)C3)cc2c(=O)n1C (single isomer, unassigned) [Example 144A]
Output: 75 to 110%

Input: Reported Emax for Cc1cc([C@@H]2CN(c3cc4c(=O)n(C)c(C)nc4c(-c4ccc(C(F)(F)F)nc4)n3)CCO2)ccn1 (single isomer, unassigned) [Example 138A] : what is it?
Output: > 110%

Input: Form field: reported Emax of Cc1nc2c(-c3ccc(Cl)cc3F)nc(N3CCOC(c4cnn(C5CC5)c4)C3)nc2c(=O)n1C (stereo not drawn) [Example 2]
Output: 75 to 110%

Others:
Input: GET /values?readout=Emax&item= Cc1nc2c(-c3ccc(C(F)(F)F)nc3)nc(N3CCO[C@H](c4cnn(C)c4)C3)cc2c(=O)n1C (single isomer, unassigned) [Example 127B]
Output: < 75%
